- Tested on: CT DNA
- measurement-protocol: Binding study with CT DNA by UV-vis spectroscopy
- Design: species or system calf
- condition-notes: second UV band listed in the cell (330–421 nm)
Consider the following molecules and their measured ΔA/Aο, percentage of hyper-/hypo-chromism upon addition of CT DNA readings.

Worked cases, answers included:
O=Cc1cc(F)ccc1[O-].O=[N+]([O-])[O-].[Cu+2].c1ccc(-c2ccccn2)nc1 [Complex 5, [Cu(5–F–salo)(bipy)(NO3)]] : −28%
O=Cc1cc(F)ccc1[O-].O=[N+]([O-])[O-].[Cu+2].c1cnc2c(c1)ccc1cccnc12 [Complex 4, [Cu(5–F–salo)(phen)(NO3)]] : −29%
O=Cc1cc(F)ccc1[O-].[Cl-].[Cu+2].c1ccc(Nc2ccccn2)nc1 [Complex 2, [Cu(5–F–salo)(bipyam)Cl]] : > +50%
O=Cc1cc(F)ccc1[O-].O=Cc1cc(F)ccc1[O-].[Cu+2] [Complex 1, [Cu(5–F–salo)2]] : −20%

# evaluate next
**Query** Answer with the recorded ΔA/Aο, percentage of hyper-/hypo-chromism upon addition of CT DNA of CO.Cc1ccc2ccc3ccc(C)nc3c2n1.O=Cc1cc(F)ccc1[O-].[Cl-].[Cu+2] [Complex 3, [Cu(5–F–salo)(neoc)Cl].CH3OH] only.
**Result** +34%

* * *

- target: human serum albumin (HSA) (Homo sapiens)
- Construct: purchased Sigma–Aldrich Co
- measurement-protocol: Albumin binding by tryptophan fluorescence quenching (HSA)
- condition-notes: HSA, final value, pH 7.0
- Protocol: Serum albumins are among the important proteins of the circulatory system. Their main role is to carry drugs and other bioactive small molecules through the bloodstream. […] The tryptophan residues of both albumins are responsible for the intense fluorescence emission band with λem,max = 342 nm for BSA and 350 nm for HSA, respectively, when their solutions are excited at 295 nm. […] The inner-filter effect was calculated with Equation (S4) and it was found too low to affect the measurements. […]
readout-label: % relative HSA fluorescence emission intensity I/Io remaining (% of initial) (%)
Please respond with the number in % and leave the unit unwritten.

Example cases with answers are listed next.
CO.Cc1ccc2ccc3ccc(C)nc3c2n1.O=Cc1cc(F)ccc1[O-].[Cl-].[Cu+2] [Complex 3, [Cu(5–F–salo)(neoc)Cl].CH3OH] : 31.5
O=Cc1cc(F)ccc1[O-].[Cl-].[Cu+2].c1ccc(Nc2ccccn2)nc1 [Complex 2, [Cu(5–F–salo)(bipyam)Cl]] : 37.3
O=Cc1cc(F)ccc1[O-].O=Cc1cc(F)ccc1[O-].[Cu+2] [Complex 1, [Cu(5–F–salo)2]] : 38.7

Continue with the compound presented below.
**Query** Write down % relative HSA fluorescence emission intensity I/Io remaining (% of initial) measured for item O=Cc1cc(F)ccc1[O-].O=[N+]([O-])[O-].[Cu+2].c1cnc2c(c1)ccc1cccnc12 [Complex 4, [Cu(5–F–salo)(phen)(NO3)]]
**Result** 25.5

* * *

- target: human serum albumin (HSA) (Homo sapiens, UniProt P02768)
- Construct: purchased Sigma–Aldrich Co
- Sequence (P02768 25-609): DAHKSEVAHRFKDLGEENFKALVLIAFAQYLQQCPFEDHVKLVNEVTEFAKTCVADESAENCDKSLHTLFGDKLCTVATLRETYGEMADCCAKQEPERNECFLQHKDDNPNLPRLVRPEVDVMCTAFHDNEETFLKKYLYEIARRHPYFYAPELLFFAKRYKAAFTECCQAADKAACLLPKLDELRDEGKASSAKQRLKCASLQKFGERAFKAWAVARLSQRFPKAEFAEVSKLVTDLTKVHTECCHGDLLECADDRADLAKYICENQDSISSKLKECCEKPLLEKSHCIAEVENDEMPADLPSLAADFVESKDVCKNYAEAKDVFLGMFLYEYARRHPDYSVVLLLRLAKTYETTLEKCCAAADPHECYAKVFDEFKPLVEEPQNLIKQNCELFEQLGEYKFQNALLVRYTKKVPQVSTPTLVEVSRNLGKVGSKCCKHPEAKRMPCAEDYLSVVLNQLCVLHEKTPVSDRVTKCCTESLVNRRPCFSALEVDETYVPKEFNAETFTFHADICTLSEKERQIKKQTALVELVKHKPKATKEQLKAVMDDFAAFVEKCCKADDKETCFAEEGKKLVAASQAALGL
- measurement-protocol: Albumin binding by tryptophan fluorescence quenching (HSA)
- condition-notes: HSA 3 μM, λex 295 nm
readout-label: ΔΙ/Ιο, quenching of the HSA fluorescence
Answers without a unit are incomplete; give the number and then its unit.

O=Cc1cc(F)ccc1[O-].O=[N+]([O-])[O-].[Cu+2].c1ccc(-c2ccccn2)nc1 [Complex 5, [Cu(5–F–salo)(bipy)(NO3)]] : 63.0%

**Query** Give me measured ΔΙ/Ιο, quenching of the HSA fluorescence, please, for this molecule: CO.Cc1ccc2ccc3ccc(C)nc3c2n1.O=Cc1cc(F)ccc1[O-].[Cl-].[Cu+2] [Complex 3, [Cu(5–F–salo)(neoc)Cl].CH3OH]
**Result** 68.5%

**Query** Specify measured ΔΙ/Ιο, quenching of the HSA fluorescence for O=Cc1cc(F)ccc1[O-].O=Cc1cc(F)ccc1[O-].[Cu+2] [Complex 1, [Cu(5–F–salo)2]] .
**Result** 61.3%

**Query** Using known records, supply ΔΙ/Ιο, quenching of the HSA fluorescence for O=Cc1cc(F)ccc1[O-].O=[N+]([O-])[O-].[Cu+2].c1cnc2c(c1)ccc1cccnc12 [Complex 4, [Cu(5–F–salo)(phen)(NO3)]]
**Result** 74.6%

**Query** Item O=Cc1cc(F)ccc1[O-].[Cl-].[Cu+2].c1ccc(Nc2ccccn2)nc1 [Complex 2, [Cu(5–F–salo)(bipyam)Cl]] : provide ΔΙ/Ιο, quenching of the HSA fluorescence
**Result** 62.7%
